# assay_comment: Vitamin content of solution (C) in polyolefin holders after autoclaving and storage at 40° C. for four months, measured through HPLC (Example 3)
# Format: physicochemical
# cond: holder No. 4, polyethylene, 250 μm, resin 123.2 cm^3 per μmol vitamin D; 40° C., 4 months
property: Vitamin content (%) of initially incorporated amount

{"molecule": "O=C1O[C@H]([C@@H](O)CO)C(O)=C1O [Vitamin C, ascorbic acid]", "uom": "%", "meas_value": 94.8}
{"molecule": "CC1=C(C/C=C(\\C)CCC[C@H](C)CCC[C@H](C)CCCC(C)C)C(=O)c2ccccc2C1=O [Vitamin K, phytonadione]", "uom": "%", "meas_value": 89.1}
{"molecule": "C=C1CC[C@H](O)C/C1=C/C=C1\\CCC[C@]2(C)[C@@H]([C@H](C)CCCC(C)C)CC[C@@H]12 [Vitamin D3, cholecalciferol]", "uom": "%", "meas_value": 66.3}
{"molecule": "CCCCCCCCCCCCCCCC(=O)OC/C=C(C)/C=C/C=C(C)/C=C/C1=C(C)CCCC1(C)C [Vitamin A, retinol palmitate]", "uom": "%", "meas_value": 78.3}
{"molecule": "CC(=O)Oc1c(C)c(C)c2c(c1C)CCC(C)(CCC[C@H](C)CCC[C@H](C)CCCC(C)C)O2 (stereo partly drawn) [Vitamin E, tocopherol acetate]", "uom": "%", "meas_value": 95.6}
{"molecule": "Cc1cc2nc3c(=O)[nH]c(=O)nc-3n(C[C@H](O)[C@H](O)[C@H](O)COP(=O)(O)O)c2cc1C [Vitamin B2, sodium riboflavin phosphate]", "uom": "%", "meas_value": 90.9}

The reported measurements were obtained from patent US6572603B1.
